MEASUREMENT_PROTOCOL: recombinant UMI read abundance after kanamycin selection (control-corrected) (log10(CPM+1)); higher = more efficient recombination; extreme values may be limits of the assay; sequences stand for … in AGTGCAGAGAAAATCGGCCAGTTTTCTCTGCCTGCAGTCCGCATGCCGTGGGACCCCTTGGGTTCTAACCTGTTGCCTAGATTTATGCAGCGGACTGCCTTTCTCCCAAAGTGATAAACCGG…AGGTTGGTTTCACT; site = the 11-nt donor
Decision: recombinant UMI read abundance (log10) compared against 0.01; not below it gives 1, below it gives -1.

| ITEM_SEQUENCE | CLASS |
| --- | --- |
| ATCTGTACATGGACCGGTTTTCCCGGTAATCCGTATTTGAC (site ATCTATACTGT) | -1 |
| GTTTCGACATGGACCGGTTTTCCCGGTAATCCGTATTTGTC (site GTTTCGACTGA) | 1 |
| CCCTAGACATGGACCGGTTTTCCCGGTAATCCGTATTTGGG (site TCCTAGACTCC) | 1 |
| TGAAGGACATGGACCGGTTTTCCCGGTAATCCGTATTTGAC (site TGAAGGACTGT) | 1 |

Prompt: Does the reported recombinant UMI read abundance (log10) for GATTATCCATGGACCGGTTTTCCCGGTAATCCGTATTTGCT (site GACTATCCTAG) fall at or above the 0.01 mark?
Completion: -1

Prompt: Does the reported recombinant UMI read abundance (log10) for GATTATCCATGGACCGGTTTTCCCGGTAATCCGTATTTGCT (site GAGTATCCTAG) fall at or above the 0.01 mark?
Completion: -1

Prompt: Does the reported recombinant UMI read abundance (log10) for CTAGTTTCATGGACCGGTTTTCCCGGTAATCCGTATTTGCC (site CTAGTATCTGT) fall at or above the 0.01 mark?
Completion: -1

* * *

MEASUREMENT_PROTOCOL: recombinant barcode read abundance after kanamycin selection (control-corrected) (log10(CPM+1)); higher = more efficient recombination; sequences stand for … in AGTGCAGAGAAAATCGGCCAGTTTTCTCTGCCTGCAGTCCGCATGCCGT…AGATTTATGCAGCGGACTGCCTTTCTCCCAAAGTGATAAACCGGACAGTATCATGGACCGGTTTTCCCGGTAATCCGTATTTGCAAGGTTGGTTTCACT; site = the 11-nt target
QUANTITY_NAME: recombinant barcode read abundance (log10)
One number for each entry.

| ITEM_SEQUENCE | NUMERIC_RESULT |
| --- | --- |
| GTAAGTGCTTGGGTTCTAACCTGTTGCCT (site GTAAATGCTAG) | 0.0588 |
| TTCAAGCCTTGGGTTCTAACCTGTTGCCT (site TTCAAGACTAG) | 0.0598 |

Parameters: items (list). Returns: recombinant barcode read abundance (log10) for each item.
1. TTACCTACTTGGGTTCTAACCTGTTGCCT (site TTACCGACTAG)
2. TCGTGCCCTTGGGTTCTAACCTGTTGCGT (site CCGTGCCCTAC)

Completion:
1: 0.278; 2: 0.0929

Prompt: Return recombinant barcode read abundance (log10) (reported value) for this sequence: GAGTCTTCTTGGGTTCTAACCTGTTGCTA (site GAGTACTCTTA)
Completion: 0.0434

* * *

MEASUREMENT_PROTOCOL: recombinant UMI read abundance after kanamycin selection (control-corrected) (log10(CPM+1)); higher = more efficient recombination; extreme values may be limits of the assay; sequences stand for … in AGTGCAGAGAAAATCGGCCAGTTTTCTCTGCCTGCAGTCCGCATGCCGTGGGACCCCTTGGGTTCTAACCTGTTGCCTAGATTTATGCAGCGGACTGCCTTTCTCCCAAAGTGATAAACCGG…AGGTTGGTTTCACT; site = the 11-nt donor
Provide the reported recombinant UMI read abundance (log10) of each item.

| ITEM_SEQUENCE | RESULT |
| --- | --- |
| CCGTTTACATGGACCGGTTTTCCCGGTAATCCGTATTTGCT (site CTGTTTACTAG) | 0 |

Parameters: items (list). Returns: recombinant UMI read abundance (log10) for each item.
1. AATCTGTCATGGACCGGTTTTCCCGGTAATCCGTATTTGAC (site AATGTGTCTGT)
2. CCAGGCGCATGGACCGGTTTTCCCGGTAATCCGTATTTGAT (site CCAGGAGCTAT)
3. TTCCCGCCATGGACCGGTTTTCCCGGTAATCCGTATTTGTT (site TTCCCGCCTAA)
4. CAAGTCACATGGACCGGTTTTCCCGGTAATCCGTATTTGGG (site CACGTCACTCC)
5. CTAGCTGCATGGACCGGTTTTCCCGGTAATCCGTATTTGTG (site ATAGCTGCTCA)
6. GTATGCACATGGACCGGTTTTCCCGGTAATCCGTATTTGGA (site GTATGCACTTC)
7. CCCGTGACATGGACCGGTTTTCCCGGTAATCCGTATTTGAT (site CCCGTGACTAT)

Completion:
1. 0.00511
2. 1.06
3. 0.00311
4. 0
5. 0.0231
6. 0.931
7. 1.05

Parameters: items (list). Returns: recombinant UMI read abundance (log10) for each item.
1. GCAGGCGCATGGACCGGTTTTCCCGGTAATCCGTATTTGCG (site GCAGGCGCTCG)
2. CCCCGTCCATGGACCGGTTTTCCCGGTAATCCGTATTTGCA (site CCCGGTCCTTG)
3. GATTGGACATGGACCGGTTTTCCCGGTAATCCGTATTTGAA (site GATTGGACTGT)
4. CCTGATACATGGACCGGTTTTCCCGGTAATCCGTATTTGGC (site CCTTATACTGC)
5. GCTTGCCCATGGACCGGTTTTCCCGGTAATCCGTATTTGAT (site TCTTGCCCTAT)
6. TTTTTGGCATGGACCGGTTTTCCCGGTAATCCGTATTTGTG (site TCTTTGGCTCA)
7. CAAGATTCATGGACCGGTTTTCCCGGTAATCCGTATTTGTT (site AAAGATTCTAA)

Completion:
1. 2.03
2. 0.0123
3. 0
4. 0
5. 0.0164
6. 0.0102
7. 0

Parameters: items (list). Returns: recombinant UMI read abundance (log10) for each item.
1. TTAGTATCATGGACCGGTTTTCCCGGTAATCCGTATTTGAC (site TTAGTATCTGT)
2. CACGGACCATGGACCGGTTTTCCCGGTAATCCGTATTTGTT (site CACGGACCTAA)

Completion:
[2.84, 0.00996]

* * *

MEASUREMENT_PROTOCOL: recombinant barcode read abundance after kanamycin selection (control-corrected) (log10(CPM+1)); higher = more efficient recombination; sequences stand for … in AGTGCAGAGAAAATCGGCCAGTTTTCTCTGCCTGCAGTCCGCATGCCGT…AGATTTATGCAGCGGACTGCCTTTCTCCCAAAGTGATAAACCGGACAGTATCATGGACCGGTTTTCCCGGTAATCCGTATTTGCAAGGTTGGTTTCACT; site = the 11-nt target
QUANTITY_NAME: recombinant barcode read abundance (log10)

| ITEM_SEQUENCE | RESULT |
| --- | --- |
| TAGTCGTCTTGGGTTCTAACCTGTTGCTT (site TAGTCGTCTAG) | 0.309 |

Parameters: items (list). Returns: recombinant barcode read abundance (log10) for each item.
1. TCCCGTACTTGGGTTCTAACCTGTTGCAT (site TCCGGTACTAT)
2. CGGATCGCTTGGGTTCTAACCTGTTGCCT (site CGGATGGCTAG)

Completion:
[0.0638, 0.153]

* * *

MEASUREMENT_PROTOCOL: recombinant UMI read abundance after kanamycin selection (control-corrected) (log10(CPM+1)); higher = more efficient recombination; extreme values may be limits of the assay; sequences stand for … in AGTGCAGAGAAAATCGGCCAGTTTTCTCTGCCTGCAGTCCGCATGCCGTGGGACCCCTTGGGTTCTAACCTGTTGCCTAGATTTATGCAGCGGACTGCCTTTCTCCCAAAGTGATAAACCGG…AGGTTGGTTTCACT; site = the 11-nt donor
QUANTITY_NAME: recombinant UMI read abundance (log10)
Give bare numbers.

Reference set (2 entries):
| ITEM_SEQUENCE | recombinant UMI read abundance (log10) |
| --- | --- |
| GTCACGACATGGACCGGTTTTCCCGGTAATCCGTATTTGGT (site GTCACGACTAC) | 1.06 |
| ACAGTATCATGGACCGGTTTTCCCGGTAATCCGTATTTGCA (site ACGGCATCTTG) | 0 |

Prompt: Return recombinant UMI read abundance (log10) (reported value) for this sequence: TCCACAGCATGGACCGGTTTTCCCGGTAATCCGTATTTGCG (site TCCACCGCTCG)
Completion: 0.00793
